Tested on: P388 leukemia ip, CD2F1 mice, survival T/C
Assay: NCI In Vivo Anticancer Drug Screen. Data for tumor model P388 Leukemia (intraperitoneal) in CD2F1 (CDF1) mice
Conditions: endpoint: median survival time; dose: 60.0 mg/kg/injection; schedule: Q01DX005 (ip); vehicle: Klucel (hydroxypropylcellulose) (HPC); higher = longer survival
Experimental: The antitumor activity of compounds was measured in mice bearing transplantable tumors. Survival or tumor size were measured and the results are expressed as the measurement made in the treated group (T) divided by the measurement made in the vehicle treated control group (C). The tumor model used in this assay is P388 Leukemia (intraperitoneal) in CD2F1 (CDF1) mice
Toxic doses and inconclusive results are not listed.
Can you tell me T/C for the items I'm about to list?

Task: State its T/C: `Fc1cccc2c(SCCCCCSc3c4ccccc4nc4c(F)cccc34)c3ccccc3nc12`
Result: 93 % of control

Task: State its T/C: `CN1C(=O)N(C)[C@@H]2CC(=O)c3ccc(C(F)(F)F)cc3N2C1=O`
Result: 101 % of control

Task: State its T/C: `O=c1[nH]nc(-c2ccccc2)c2nc3ccccc3n12`
Result: 88 % of control

Task: State its T/C: `Cc1ccc(N=Nc2c(C)noc2C)c(Br)c1`
Result: 93 % of control

Task: State its T/C: `CCOC(=O)CCC(=O)Oc1cccc2c1C(=O)c1c(O)cccc1C2=O`
Result: 91 % of control

Task: State its T/C: `NNC(=O)CNc1ccccc1Br`
Result: 97 % of control

Task: State its T/C: CNC(=O)C(O)c1c(-c2ccccc2)c(-c2ccccc2)c2n1CCC2 (stereo not given)
Result: 96 % of control

Task: State its T/C: `CCOC(=O)c1ccc(NC(=O)Nc2cccc(NC(C)=O)c2)cc1`
Result: 89 % of control

Task: State its T/C: `COc1ccc2c(c1)CCC(c1nc3ccc(Cl)cc3[nH]c1=O)=C2O`
Result: 101 % of control

Task: State its T/C: CCCCCC(=O)C(C)C1(C(=O)OC)NC(=S)NC(=O)C1C#N (stereo not given)
Result: 105 % of control

====

Can you tell me T/C for the items I'm about to list?
System: P388 leukemia ip, CD2F1 mice, survival T/C
Assay: NCI In Vivo Anticancer Drug Screen. Data for tumor model P388 Leukemia (intraperitoneal) in CD2F1 (CDF1) mice
Conditions: endpoint: median survival time; dose: 200.0 mg/kg/injection; schedule: Q04DX003 (ip); vehicle: saline with Tween-80; higher = longer survival
Toxic doses and inconclusive results are not listed.

Task: State its T/C: `CC(C)N(C(=O)c1ccc(Cl)c(Cl)c1)C(C)C`
Result: 105 % of control

Task: State its T/C: `O=P(c1ccccc1)(c1ccccc1)c1ccccc1.O=P(c1ccccc1)(c1ccccc1)c1ccccc1.O=P(c1ccccc1)(c1ccccc1)c1ccccc1.O=P(c1ccccc1)(c1ccccc1)c1ccccc1.[Fe+3].[O-][Cl+3]([O-])([O-])O`
Result: 93 % of control

Task: State its T/C: `COc1ccc2c(c1)CC[C@@H]1[C@@H]2CC[C@@]2(C)[C@H]1CC[C@@]2(O)C(F)=C(F)F`
Result: 88 % of control

Task: State its T/C: `O=C(CC(O)(C(F)(F)F)C(F)(F)F)c1ccc(Cl)cc1`
Result: 104 % of control

Task: State its T/C: `Cc1cc(Cl)c(C)c(Cl)c1Cl`
Result: 95 % of control

Task: State its T/C: `CCCCCCCCCCCCCCCCCC(=O)NN`
Result: 87 % of control

Task: State its T/C: `c1ccc2c3c(ccc2c1)OCN(C12CC4CC(CC(C4)C1)C2)C3`
Result: 110 % of control

Task: State its T/C: `Cc1ccc2c(c1)Sc1ccc3ccccc3c1N2`
Result: 100 % of control

Task: State its T/C: `CCCCCCCCCCCCN(C)S(=O)(=O)c1ccc(Cl)c(N)c1`
Result: 95 % of control

Task: State its T/C: `O=C(O)CCC(=O)c1ccc(Br)cc1`
Result: 104 % of control
